So I've got a bunch of molecules here, and I need their log10(IC50) values.
target: STAT3 (Homo sapiens, UniProt P40763); construct: plasmid pSTAT3-TA-luc), which contains a stably operating STAT3 promoter; endogenous in cells; assay: STAT3 reporter gene assay (luciferase), LNCaP stable cell line (pSTAT3-TA-luc), IL-6 stimulation; type: cell-based
Sequence (P40763 whole entry): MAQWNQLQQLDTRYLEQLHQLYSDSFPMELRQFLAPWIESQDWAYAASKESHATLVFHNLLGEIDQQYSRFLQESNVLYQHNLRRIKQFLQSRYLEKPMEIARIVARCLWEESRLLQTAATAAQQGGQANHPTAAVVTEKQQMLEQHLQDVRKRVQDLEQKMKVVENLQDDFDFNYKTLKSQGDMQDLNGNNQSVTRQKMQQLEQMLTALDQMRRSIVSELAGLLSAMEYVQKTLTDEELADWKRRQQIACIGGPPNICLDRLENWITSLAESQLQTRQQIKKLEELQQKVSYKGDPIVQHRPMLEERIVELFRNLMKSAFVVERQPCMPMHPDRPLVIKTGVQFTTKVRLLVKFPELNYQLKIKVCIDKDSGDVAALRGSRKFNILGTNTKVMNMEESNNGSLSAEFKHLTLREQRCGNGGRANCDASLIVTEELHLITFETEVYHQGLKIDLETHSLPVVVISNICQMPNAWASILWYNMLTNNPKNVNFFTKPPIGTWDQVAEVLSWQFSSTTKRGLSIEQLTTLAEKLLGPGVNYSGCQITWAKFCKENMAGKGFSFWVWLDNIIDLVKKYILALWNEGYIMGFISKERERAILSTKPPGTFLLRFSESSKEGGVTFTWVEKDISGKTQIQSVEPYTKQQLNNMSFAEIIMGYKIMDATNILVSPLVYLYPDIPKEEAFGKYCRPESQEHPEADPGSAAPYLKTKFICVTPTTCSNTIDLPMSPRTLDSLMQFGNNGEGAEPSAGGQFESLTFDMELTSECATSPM
# values: log10(IC50), units µM

log10(IC50) lookup needed for COc1cc(OC(F)(F)F)cc(-c2cc(Cl)cc(NC(=O)c3cc4cc(NS(C)(=O)=O)c(F)cc4s3)c2)c1 , thanks.
-0.62

// query log10(IC50) value for entry Cn1ccc(C(C)(C)c2cc(Cl)cc(NC(=O)c3cc4cc(NS(C)(=O)=O)ccc4s3)c2)c1
-0.89

log10(IC50) for CN(C)S(=O)(=O)Nc1ccc2cc(C(=O)Nc3cccc(-c4ccccc4C(F)(F)F)c3)[nH]c2c1 ?
0.30

Item under review: CC(C)Oc1cc(OC(F)(F)F)cc(C(C)(C)c2cc(Cl)cc(NC(=O)c3cn4cc(NS(C)(=O)=O)ccc4n3)c2)c1 . Reported log10(IC50)?
0.43

For CS(=O)(=O)Nc1ccc2sc(C(=O)Nc3cc(Cl)cc(-c4ccc(F)cc4F)c3)cc2c1 , what is its reported log10(IC50)?
-0.96

Can you share its log10(IC50)? I mean this molecule: COc1ccc(C(C)(C)c2cc(Cl)cc(NC(=O)c3cc4cc(NS(C)(=O)=O)ccc4s3)c2)c(OC)c1
-0.85

// lookup log10(IC50) for CC(C)(c1cc(Cl)cc(NC(=O)c2cc3cc(NS(C)(=O)=O)ccc3s2)c1)c1cc(OC(F)(F)F)ccc1F
-1.96
